Tested on: COLO 205 colon
Experiment: NCI-60 one-dose screen, 48 h
Conditions: 10 µM unless noted
Procedure: Cells are grown in 96 well plates and exposed to the test compound for 48 hours. Compounds are tested at a single concentration, which is 10^-5 M for most compounds. The reported endpoint is percent growth (GI% or GIPRCNT), where numbers from 0 - 100% represent growth inhibition, and numbers from -100% - 0 represent cell death. For example, a value of 40 represents 60% growth inhibition. A value of 0 means no net growth occurred over the course of the experiment. […]
Compounds without any hit were thinned out: in the full panel of roughly 83,000, 20% have a hit. Activity calls are given as the source filed them. Rule for the calls: active = growth percent below 10; inactive = the rest.
Classes used: active, inactive

molecule: N#Cc1c(Br)n(C2OC(CO)C(O)C2O)c2ncnc(N)c12 (stereo unspecified)
label-value: inactive
--
molecule: C[C@]12CC[C@H]3[C@@H](CC4SC(N)=NC45C/C(=N/NC(N)=O)CC[C@]35C)[C@@H]1CCC2=O (stereo partly specified)
label-value: inactive
--
molecule: CNC(=O)Oc1ccc(C(C)(C)C)cc1OC(=O)NC
label-value: inactive
--
molecule: Clc1cccc(Cl)c1Cl
label-value: inactive
--
molecule: O=C1CC2(CC3(Cl)C(Cl)=C(Cl)C2(Cl)C3(Cl)Cl)C(=O)O1 (stereo unspecified)
label-value: inactive
--
molecule: ClCCN(CCCl)c1ccc(/C=N/Nc2ncnc3nc[nH]c23)cc1
label-value: inactive
--
molecule: NC(=Nc1ccccc1)N[N+](=O)[O-]
label-value: inactive
--
molecule: COC(=O)N[C@H]1CCc2c(Br)c(OC)c(OC)c(OC)c2-c2ccc(SC)c(=O)cc21
label-value: active
--
molecule: O=[N+]([O-])c1cc([N+](=O)[O-])c(Nn2c3ccccc3c3ccccc32)c([N+](=O)[O-])c1
label-value: active
--
molecule: c1cc2c(c3c1CCNC3)OCO2
label-value: inactive
--
molecule: CC12CCC3C(CCC4=CC(=O)CCC43CF)C1CCC2=O (stereo unspecified)
label-value: inactive

* * *

test system: HOP-62 NSCLC; test: NCI-60 one-dose screen, 48 h (100 = growth as untreated, 0 = no growth, -100 = all killed); settings: 10 µM unless noted
About 83,000 compounds went through this panel and 20% of them were active in at least one assay; those are over-represented in the sample as a whole. Calls of active or inactive are those of the source. The calls were made as follows: active = growth percent below 10; inactive = the rest.
growth overview

molecule: COC(=O)[C@@H](C)C[C@H](Cc1ccccc1)NC(=O)c1nc([C@@H](C[C@H](C(C)C)N(C)C(=O)[C@@H](NC(=O)[C@H]2CC(=O)CCN2C)C(C)C)OC(C)=O)sc1C(C)C
growth: 15.6% (inactive)
--
molecule: CCCCCCCCCCCCCCCCCCOc1ccccc1COP(=O)(O)OOCC[N+](C)(C)C
growth: 3.04% (active)
--
molecule: CSc1nc(Cl)cc(N2CC2)n1
growth: 103% (inactive)
--
molecule: COc1ccc([As]=[As]c2ccc(OC)c(NCS(=O)(=O)O)c2)cc1NCS(=O)(=O)O (stereo not drawn)
growth: 39.7% (inactive)
--
molecule: CN1CC(=O)N(O)C1(C)c1cccnc1 (stereo not drawn)
growth: 95.6% (inactive)
--
molecule: Clc1cc(N2CC2)nc(N2CC2)n1
growth: 63.9% (inactive)
--
molecule: NC(=Nc1ccccc1)N[N+](=O)[O-]
growth: 104% (inactive)
--
molecule: CCCCCCCCCCCCCCCCCC1OC[C@H](COC(=O)O[C@@H](C(=O)O[C@H]2C[C@@]3(O)[C@@H](OC(=O)c4ccccc4)[C@@H]4[C@]5(OC(C)=O)CO[C@@H]5C[C@H](O)[C@@]4(C)C(=O)[C@H](OC(C)=O)C(=C2C)C3(C)C)[C@@H](NC(=O)c2ccccc2)c2ccccc2)O1 (stereo partly drawn)
growth: 66.3% (inactive)
--
molecule: CC(CC1CCCCC1)NCc1ccccc1 (stereo not drawn)
growth: 102% (inactive)
--
molecule: CCCCCCCOC(C(=O)OCCN(CC)CC)(c1ccccc1)c1ccccc1
growth: 89.6% (inactive)
--
molecule: CCC1CC(O)c2c(O)c3c(c(O)c2C1O)C(=O)c1cccc(O)c1C3=O (stereo not drawn) (tested in a mixture with another compound)
growth: -62.2% (active)
--
molecule: N#CCCNc1ccccc1
growth: 116% (inactive)
--
molecule: O=[N+]([O-])CC(O)C(Cl)(Cl)Cl (stereo not drawn)
growth: 99.8% (inactive)
--
molecule: COC(=O)[C@]12CCC(C)(C)C[C@H]1[C@H]1C(=O)C[C@@H]3[C@@]4(C)C[C@@]5(CC(C)(C)[C@@H]4CC[C@@]3(C)[C@]1(C)CC2)OO[C@@](C)(C(F)(F)F)O5
growth: 100% (inactive)
--
molecule: CCCCCCCC[N+](C)(CCCCCCCC)CCCCCCCC
growth: -92.2% (active)
--
molecule: CN1CCC(O)(c2ccc(F)cc2)C(C(=O)c2ccc(F)cc2)C1 (stereo not drawn)
growth: 97.2% (inactive)
--
molecule: COc1ccc(Nc2ccnc3cc(Cl)ccc23)cc1CN(CCCl)CCCl
growth: -38.8% (active)
--
molecule: C/C=C(\C)C(=O)O[C@@H]1C(O)[C@H]2OC(COC(=O)CCC(=O)CCCCCC[C@H](CCCCC)O[C@@H]3OC(C)[C@H](OC(C)=O)C(O)[C@H]3O2)[C@H]1OC(=O)/C=C/c1ccccc1 (stereo partly drawn)
growth: -2.42% (active)
